Entry source: patent US20230192834A1

Molecular target: T1, TGFβ3 (R&D Systems)
T1 sequence (P10600 301-412, species assumed, looked up): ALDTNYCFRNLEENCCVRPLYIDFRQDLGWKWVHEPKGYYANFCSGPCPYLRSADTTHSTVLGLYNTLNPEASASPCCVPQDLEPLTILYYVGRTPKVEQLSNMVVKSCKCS
Experiment: SPR (Biacore T200), TGFβ amine-coupled to chip, 1:1 fit
Reported Kd is given for each of the following binders.

| Binder | Kd |
| --- | --- |
| Felinized anti-TGFβ1,2,3 antibody VH2.1 - VL8 (antibody, V domains shown) VH: QVLLVQSGADVRKPGASVKIFCKASGYTFTSNVISWVRQTPAQGFEWMGGVIPIVDIANYAQRFKGRLVLTADTSTNTAYMELRSLKSADTAVYYCASTLGLVLDAMDYWGQGSLVTVSS VL: DIVMTQSPGSLAGSPGQQVTMNCRASQSLGSSYLAWYQQKPGQHPELLIYGASSRAPGVPDRFSGSGSGTDFTLTISNLQAEDVANYYCQQYADSPITFGQGTKLEIKR | 1060 pM |
| Caninized anti-TGFβ1,2,3 antibody VH4.5 - VL1 (antibody, V domains shown) VH: EVQLVESGGDLVKPAGSLRLSCVASGYTFSSNVMSWVRQAPGKGLQWVGYVIPIVDIANYADAVKGRFTISRDNAKNTLYLQMNSLRVEDTAVYYCTRTLGLVLDAMDYWGQGTLVTVSS VL: ETVLTQSPGTLSLSPGERATLSCRASQSLGSSYLAWYQQKPGQAPRLLIYGASSRAPGIPDRFSGSGSGTDFTLTISRLEPEDFAVYYCQQYADSPITFGQGTRLEIKR | 475 pM |
